- TEST_DETAILS: surface tension, drop count method, Traube stalagmometer
- Format: physicochemical
- CONDITION_SUMMARY: aqueous solution c = 2.0 × 10^−3 M, 21 °C; water γ = 0.07259 N/m
Listed next: entries and their corresponding surface tension γ (relative surface activity).
READOUT: surface tension γ (relative surface activity)

1) CCCCCCCOc1cccc(NC(=O)OC(CN(CCC)CCC)CN2CCCC2)c1.Cl.Cl (centres unmarked) | 0.05786 N/m
2) CCCCCCOc1ccccc1NC(=O)OC(CN(CCC)CCC)CN1CCCC1 (centres unmarked) | 0.06222 N/m
3) CCCCCCOc1ccccc1NC(=O)OC(CN(CCC)CCC)CN1CCCCCC1 (centres unmarked) | 0.06065 N/m
4) CCCCCOc1ccccc1NC(=O)OC(CN(CCC)CCC)CN1CCCC1 (centres unmarked) | 0.06366 N/m
5) CCCCCCCOc1cccc(NC(=O)OC(CN(CCC)CCC)CN2CCCCCC2)c1.Cl.Cl (centres unmarked) | 0.05692 N/m
6) CCCCOc1cccc(NC(=O)OC(CN(CCC)CCC)CN2CCCCCC2)c1 (centres unmarked) | 0.06298 N/m
7) CCCCCOc1cccc(NC(=O)OC(CN(CCC)CCC)CN2CCCCCC2)c1.Cl.Cl (centres unmarked) | 0.06154 N/m
8) CCCCCCOc1cccc(NC(=O)OC(CN(CCC)CCC)CN2CCCC2)c1 (centres unmarked) | 0.06105 N/m
9) CCCCCOc1ccccc1NC(=O)OC(CN(CCC)CCC)CN1CCCCCC1.O=C(O)C(=O)O (centres unmarked) | 0.06206 N/m
10) CCCCCCCOc1cccc(NC(=O)OC(CN(CCC)CCC)CN2CCCCCC2)c1.O=C(O)C(=O)O (centres unmarked) | 0.05853 N/m
11) CCCCOc1ccccc1NC(=O)OC(CN(CCC)CCC)CN1CCCC1 (centres unmarked) | 0.06464 N/m

---

- Test system: M. kansasii CNCTC My 235/80 (identical with ATCC 12478; MK 235/80)
- TEST_DETAILS: in vitro antimycobacterial MIC, dilution micromethod in Šula's semisynthetic medium
- Assay type: cell-based, Mycobacterium kansasii
- CONDITION_SUMMARY: Mycobacterium kansasii, ATCC12478, 168 h, 7-day cultivation; read-out: MIC MK 235/80 7-d
READOUT: MIC (µM)

1) CCCCCCCOc1cccc(NC(=O)OC(CN(CCC)CCC)CN2CCCCCC2)c1.O=C(O)C(=O)O (centres unmarked) | 16
2) CCCCOc1cccc(NC(=O)OC(CN(CCC)CCC)CN2CCCCCC2)c1 (centres unmarked) | 16
3) CCCCCCOc1ccccc1NC(=O)OC(CN(CCC)CCC)CN1CCCCCC1 (centres unmarked) | 16
4) CC1COc2c(N3CCN(C)CC3)c(F)cc3c(=O)c(C(=O)O)cn1c23 (centres unmarked) [OFLX, ofloxacin, reference compound] | 0.5
5) CCCCOc1ccccc1NC(=O)OC(CN(CCC)CCC)CN1CCCC1 (centres unmarked) | 62.5
6) CCCCCCOc1ccccc1NC(=O)OC(CN(CCC)CCC)CN1CCCC1 (centres unmarked) | 32
7) CCCCOc1ccccc1NC(=O)OC(CN(CCC)CCC)CN1CCCCCC1 (centres unmarked) | 32
8) CCCCCOc1ccccc1NC(=O)OC(CN(CCC)CCC)CN1CCCC1 (centres unmarked) | 32
9) CCCCOc1cccc(NC(=O)OC(CN(CCC)CCC)CN2CCCC2)c1 (centres unmarked) | 32
10) CCCCCCOc1cccc(NC(=O)OC(CN(CCC)CCC)CN2CCCC2)c1 (centres unmarked) | 16
